System: CCRF-CEM leukemia
Test Method Notes: NCI-60 one-dose screen, 48 h (100 = growth as untreated, 0 = no growth, -100 = all killed)
Measurement Conditions: 10 µM unless noted
Compounds without any hit were thinned out: in the full panel of roughly 83,000, 20% have a hit. The source made the active and inactive calls. Rule for the calls: active = growth percent below 10; inactive = the rest.
# growth annotations
Measure Name: growth

> print(dat)
                                    compound      assay.result
 1  C#Cc1cc(OC)c(C(=O)Nc2ccc(F)cc2C(=O)Nc2cccc(S(=O)(=O)C(F)(F)F)c2)cn1   -23.5% (active)
 2  Cn1cc(-c2nn3cc(-c4ccncc4)nc3s2)c2cc(F)ccc21    16% (inactive)
 3  Cc1ccc2c(n1)C(=O)C(Cl)=C(Nc1cccc(C(F)(F)F)c1)C2=O    4.32% (active)
 4  Fc1ccc(-c2cn3c(-c4c[nH]c5ccc(Br)cc45)csc3n2)cc1  70.3% (inactive)
 5     Cc1ccc(C(=O)CSc2nc3ccccc3c(=O)n2C)cc1  83.6% (inactive)
 6  C[C@@H]1OCC2(CCN(c3cnc(C(=O)Nc4cc(F)cc5cccnc45)cn3)CC2)[C@@H]1N  15.7% (inactive)
 7  NNc1nnc2nc(Nc3ccccc3)nc(Nc3ccc(S(N)(=O)=O)cc3)n12  92.5% (inactive)
 8  C/C(=N\NC(=O)Nc1ccccc1)c1nnn(-c2ccc([N+](=O)[O-])cc2)c1C   105% (inactive)
 9  C/C(=C(/C)C1CC1CCNC1CCC(NC(=O)OC(C)(C)C)CC1)c1ccccc1 (stereo unspecified)    54% (inactive)
10  O=C1[C@@H]2Cc3c([nH]c4ccccc34)[C@H](c3ccc(Cl)cc3)N2C(=O)CN1C1CCN(Cc2ccccc2)CC1  36.7% (inactive)
11  NS(=O)(=O)c1ccc(Nc2nc(N/N=C/C=C/c3ccccc3)nc(Nc3ccccc3)n2)cc1  24.8% (inactive)
12  COc1ccc(OC)c(NC(=O)CCCCCCNC(=O)C(O)(O)C(F)(F)F)c1  23.5% (inactive)
13  Cn1cc(-c2cc3ncnc(Nc4ccc(NC(=O)Nc5cc(C(C)(C)C)on5)cc4)c3s2)cn1  22.2% (inactive)
14  COc1ccc(CC(C)=C(c2ccc(OCCN3CCCC3)cc2)c2ccc(OCCN3CCCC3)cc2)cc1   -40.8% (active)
15  CCc1cc(O)ccc1Nc1cc(-c2ccc(-n3cccn3)cc2)[nH]n1  60.4% (inactive)
16  CN1CCN(Cc2ccc(NC(=O)c3cncc(C#Cc4cnc5ccc(N)nn45)c3)cc2C(F)(F)F)CC1  11.8% (inactive)
17  C/C(=C(\c1ccc(O)cc1)c1ccc(OCCN2CCCCCC2)cc1)c1ccc(Cl)cc1    3.56% (active)
18  C#C[C@]1(O)CC[C@H]2[C@@H]3CC=C4c5sc(N6CCN(C)CC6)nc5CC[C@]4(C)[C@H]3CC[C@@]21C   -8.52% (active)
19  O=C(/C=C/c1cccc(F)c1)c1cccc(OCCCOc2cccc(C(=O)/C=C/c3cccc(F)c3)c2)c1  36.8% (inactive)
20  CCNC(=O)Oc1ccc(/C(=C(/C)c2ccc(Cl)cc2)c2ccc(OCCN3CCCCCC3)cc2)cc1  12.7% (inactive)
21  C#CCOc1ccccc1/C=N/Nc1nc(-c2ccc(Cl)cc2)cs1  96.6% (inactive)
